Target: Recombinant ROCK1 (amino acids 1-477) (Homo sapiens, UniProt Q13464)
Construct: Recombinant ROCK1 (amino acids 1-477); by word order, ROCK1 from Carna Biosciences
Sequence (Q13464 1-477): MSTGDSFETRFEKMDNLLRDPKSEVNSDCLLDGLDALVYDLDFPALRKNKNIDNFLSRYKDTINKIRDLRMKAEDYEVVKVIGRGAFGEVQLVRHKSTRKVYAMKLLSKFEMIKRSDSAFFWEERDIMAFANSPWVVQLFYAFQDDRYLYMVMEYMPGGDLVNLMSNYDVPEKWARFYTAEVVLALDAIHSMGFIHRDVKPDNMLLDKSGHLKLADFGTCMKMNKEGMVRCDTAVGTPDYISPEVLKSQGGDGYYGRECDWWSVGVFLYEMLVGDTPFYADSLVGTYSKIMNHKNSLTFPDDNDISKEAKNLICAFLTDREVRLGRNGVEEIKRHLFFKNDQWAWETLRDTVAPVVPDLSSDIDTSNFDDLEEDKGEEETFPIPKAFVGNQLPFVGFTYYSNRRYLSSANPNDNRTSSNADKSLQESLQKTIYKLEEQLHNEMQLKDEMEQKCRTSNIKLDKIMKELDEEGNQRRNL
Test: ROCK inhibition assay, LANCE Ultra TR-FRET kinase assay (ROCK1)
Type: biochemical
Settings: 1 μM ATP, 50 nM ULight-CREBtide substrate
Method: Kinase IC50 was determined through an in vitro assay based on LANCE Ultra TR-FRET (Time-Resolved Fluorescence Resonance Energy Transfer) homogeneous technologies method (Perkin Elmer). […] Compound activities were measured by Envision and IC50s were calculated. […] The reaction was incubated for 1 hour, and the signal was read in Envision in TR-FRET mode (excitation at 320 nm and emission at 615/665 nm). […]
pIC50: −log10 of the molar value.
Record form. Attribute: pIC50. Fill in for each entry.

Query string: Quick one: pIC50 for CNC(=O)c1cccc(Cn2cnc3cc(-c4cn[nH]c4Cl)ccc3c2=O)c1 [Compound 404] ?
Result string: > 8.00

Query string: Further, for CNC(=O)c1cccc(C(C)n2ccc3cc(-c4ccnn4C)ccc3c2=O)c1 (centres unmarked) [Compound 322] ?
Result string: 6.30 to 7.00

Query string: Further, for O=C(NCCN1CCOCC1)c1cccc(Cn2ccc3cc(N4CCOCC4)ccc3c2=O)c1 [Compound 230] ?
Result string: 7.00 to 7.96

Query string: Further, for N#Cc1cccc(C(CN)n2cnc3cc(-c4ccnc(N)c4)ccc3c2=O)c1 (centres unmarked) [Compound 501] ?
Result string: < 6.30

Query string: Further, for CNC(=O)c1cccc(Cn2cc(C(C)O)c3cc(-c4c[nH]nc4C(F)(F)F)ccc3c2=O)c1 (centres unmarked) [Compound 532] ?
Result string: > 8.00

Query string: Further, for CNC(=O)c1cc(F)cc(C(C)n2ccc3cc(-c4cn[nH]c4F)ccc3c2=O)c1 (centres unmarked) [Compound 298] ?
Result string: 7.00 to 7.96

Query string: Further, for CNC(=O)c1cccc(Cn2cc(CCO)c3cc(-c4cn[nH]c4C(F)(F)F)ccc3c2=O)c1 [Compound 546] ?
Result string: 7.00 to 7.96

Query string: Further, for CNC(=O)c1cc(F)cc(C(C)n2ccc3cc(-c4conc4C)ccc3c2=O)c1 (centres unmarked) [Compound 316] ?
Result string: 7.00 to 7.96

Query string: Further, for CC(c1cccc(O)c1)n1ccc2cc(-c3c[nH]nc3C(F)F)ccc2c1=O (centres unmarked) [Compound 15] ?
Result string: 7.00 to 7.96

Query string: Further, for Cc1nocc1-c1ccc2c(=O)n(Cc3cccc(C(=O)NC4CCNCC4)c3)ccc2c1 [Compound 85] ?
Result string: 7.00 to 7.96

Query string: Further, for CC(=O)Nc1cccc(Cn2ccc3cc(-c4c[nH]nc4Cl)ccc3c2=O)c1 [Compound 345] ?
Result string: 7.00 to 7.96

Query string: Further, for CNC(=O)c1cccc(Cn2ccc3cc(N4CCO[C@@H](C)C4)ccc3c2=O)c1 [Compound 331] ?
Result string: < 6.30

Query string: Further, for CC(O)c1cn(Cc2cccc(C(=O)NCCc3ccccn3)c2)c(=O)c2ccc(-c3c[nH]nc3Cl)cc12 (centres unmarked) [Compound 543] ?
Result string: > 8.00

Query string: Further, for Cn1nccc1-c1ccc2c(=O)n(Cc3cccc(C(=O)NC4CCOCC4)c3)ccc2c1 [Compound 104] ?
Result string: 6.30 to 7.00

Query string: Further, for CNC(=O)c1cccc([C@@H](C)n2cnc3cc(-c4cn[nH]c4C(F)(F)F)ccc3c2=O)c1 [Compound 440] ?
Result string: 7.00 to 7.96

Query string: Further, for CNC(=O)c1cccc(C(C)n2ccc3cc(-c4cn[nH]c4Cl)ccc3c2=O)c1 (centres unmarked) [Compound 292] ?
Result string: 7.00 to 7.96

Query string: Further, for Cc1nocc1-c1ccc2c(=O)n(Cc3cc(F)cc(C(=O)NCC4COC4)c3)ccc2c1 [Compound 145] ?
Result string: 6.30 to 7.00

* * *

biological target: Recombinant ROCK2 (amino acids 5-554) (Homo sapiens, UniProt O75116); construct: ROCK2 (amino acids 5-554); by word order, ROCK2 from SignalChem; experiment: ROCK inhibition assay, LANCE Ultra TR-FRET kinase assay (ROCK2); details: 4 μM ATP, 50 nM ULight-CREBtide substrate
Sequence (O75116 5-554): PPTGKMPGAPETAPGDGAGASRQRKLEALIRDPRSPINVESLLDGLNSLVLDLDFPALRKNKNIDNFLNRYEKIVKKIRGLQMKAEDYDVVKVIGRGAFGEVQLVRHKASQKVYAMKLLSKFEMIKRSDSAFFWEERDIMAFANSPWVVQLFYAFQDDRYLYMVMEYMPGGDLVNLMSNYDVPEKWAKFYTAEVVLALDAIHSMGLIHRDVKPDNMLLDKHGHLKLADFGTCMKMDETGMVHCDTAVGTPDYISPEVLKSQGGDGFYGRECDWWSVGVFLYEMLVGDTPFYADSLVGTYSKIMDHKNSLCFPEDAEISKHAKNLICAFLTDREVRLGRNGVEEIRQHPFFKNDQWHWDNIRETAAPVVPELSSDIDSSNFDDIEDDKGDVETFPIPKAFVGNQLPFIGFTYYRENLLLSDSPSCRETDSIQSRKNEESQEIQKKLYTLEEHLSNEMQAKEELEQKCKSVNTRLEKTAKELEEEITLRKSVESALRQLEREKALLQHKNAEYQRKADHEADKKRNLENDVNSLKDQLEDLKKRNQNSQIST
Record form. Attribute: IC50. Fill in for each entry.

Query string: Quick one: IC50 for Cc1nocc1-c1ccc2c(=O)n(Cc3cccc(C(=O)Nc4ccc5c(c4)CN(C)CC5)c3)ccc2c1 [Compound 101] ?
Result string: < 10 nM

Query string: Further, for O=C(NCC1CCOCC1)c1cccc(Cn2ccc3cc(-c4c[nH]nc4C(F)F)ccc3c2=O)c1 [Compound 55] ?
Result string: < 10 nM

Query string: Further, for Cc1nocc1-c1ccc2c(=O)n(Cc3cccc(C(=O)Nc4ccon4)c3)ccc2c1 [Compound 90] ?
Result string: 100 to 500 nM

Query string: Further, for COc1cccc(Cn2cnc3cc(-c4ccnn4C)ccc3c2=O)c1 [Compound 358] ?
Result string: 10 to 100 nM

Query string: Further, for C[C@H](c1cccc(C(=O)NC2CCOCC2)c1)n1cnc2cc(-c3cn[nH]c3C(F)(F)F)ccc2c1=O [Compound 449] ?
Result string: < 10 nM

Query string: Further, for Cc1nocc1-c1ccc2c(=O)n(Cc3cccc(C(=O)NCC4CCOCC4)c3)cnc2c1 [Compound 416] ?
Result string: < 10 nM

Query string: Further, for CNC(=O)c1cccc(Cn2ccc3cc(-c4ccnn4C)ncc3c2=O)c1 [Compound 240] ?
Result string: 10 to 100 nM

Query string: Further, for CNC(=O)c1cccc(Cn2ccc3cc(-c4ccnc(N)c4)ccc3c2=O)c1 [Compound 326] ?
Result string: < 10 nM

* * *

target: Recombinant ROCK2 (amino acids 5-554) (Homo sapiens); construct: ROCK2 (amino acids 5-554); by word order, ROCK2 from SignalChem; test: ROCK inhibition assay, LANCE Ultra TR-FRET kinase assay (ROCK2); settings: 4 μM ATP, 50 nM ULight-CREBtide substrate
Record form. Attribute: IC50. Fill in for each entry.

Query string: Quick one: IC50 for [2H]C([2H])([2H])NC(=O)c1cccc(Cn2ccc3cc(-c4cn[nH]c4Br)ccc3c2=O)c1 [Compound 513] ?
Result string: < 0.01 µM

Query string: Further, for [2H]C([2H])([2H])NC(=O)c1cc(F)cc(Cn2cnc3cc(-c4cn[nH]c4C(F)F)ccc3c2=O)c1 [Compound 402] ?
Result string: < 0.01 µM

Query string: Further, for Cn1nccc1-c1ccc2c(=O)n(Cc3cc(F)cc(C(=O)NC4CCOCC4)c3)ccc2c1 [Compound 166] ?
Result string: 0.01 to 0.1 µM

Query string: Further, for CNC(=O)c1cccc(Cn2cc(C(C)O)c3cc(-c4conc4C)ccc3c2=O)c1 (stereo not shown) [Compound 537] ?
Result string: < 0.01 µM

* * *

Record form. Attribute: pIC50. Fill in for each entry.
biological target: Recombinant ROCK2 (amino acids 5-554) (Homo sapiens, UniProt O75116); construct: ROCK2 (amino acids 5-554); by word order, ROCK2 from SignalChem; assay: ROCK inhibition assay, LANCE Ultra TR-FRET kinase assay (ROCK2); conditions: 4 μM ATP, 50 nM ULight-CREBtide substrate
pIC50: −log10 of the molar value.

Query string: Quick one: pIC50 for Cc1nocc1-c1ccc2c(=O)n(Cc3cccc(C(=O)NCC4CCN(CC(F)(F)F)CC4)c3)ccc2c1 ?
Result string: 7.00 to 8.00

Query string: Further, for O=C(NC1CCOCC1)c1cc(F)cc(Cn2ccc3cc(-c4c[nH]nc4C(F)(F)F)ccc3c2=O)c1 ?
Result string: 7.00 to 8.00

Query string: Further, for CN1CCC(CNC(=O)c2cc(F)cc(Cn3ccc4cc(-c5c[nH]nc5Br)ncc4c3=O)c2)CC1 ?
Result string: > 8.00

Query string: Further, for CN1CCC(CNC(=O)c2cccc(Cn3ccc4cc(N5CCOCC5)ccc4c3=O)c2)CC1 ?
Result string: 7.00 to 8.00

Query string: Further, for Cn1nccc1-c1ccc2c(=O)n(Cc3cccc(C(=O)Nc4ccc5c(c4)CNCC5)c3)ccc2c1 ?
Result string: > 8.00

Query string: Further, for Cc1nocc1-c1ccc2c(=O)n(Cc3cccc(C(=O)Nc4ccc5c(c4)CCN(C4CC4)C5)c3)ccc2c1 ?
Result string: > 8.00

Query string: Further, for CNC(=O)c1cc(F)cc(Cn2cnc3cc(-c4cn[nH]c4C(F)F)ccc3c2=O)c1 ?
Result string: > 8.00

* * *

biological target: Recombinant ROCK1 (amino acids 1-477) (Homo sapiens, UniProt Q13464); construct: Recombinant ROCK1 (amino acids 1-477); by word order, ROCK1 from Carna Biosciences; experiment: ROCK inhibition assay, LANCE Ultra TR-FRET kinase assay (ROCK1); conditions: 1 μM ATP, 50 nM ULight-CREBtide substrate
endpoint: IC50

Query string: Quick one: IC50 for CNC(=O)c1cc(F)cc(Cn2ccc3cc(-c4c[nH]nc4C(F)F)ncc3c2=O)c1 [Compound 252] ?
Result string: 11 to 100 nM

Query string: Further, for CCNC(=O)c1cc(F)cc(Cn2ccc3cc(-c4c[nH]nc4C)ncc3c2=O)c1 [Compound 254] ?
Result string: 11 to 100 nM

Query string: Further, for [2H]C([2H])([2H])NC(=O)c1cc(F)cc(Cn2cnc3cc(-c4cn[nH]c4C(F)F)ccc3c2=O)c1 [Compound 402] ?
Result string: 11 to 100 nM

Query string: Further, for O=C(NCCN1CCOCC1)c1cc(F)cc(Cn2ccc3cc(N4CCOCC4)ccc3c2=O)c1 [Compound 229] ?
Result string: 11 to 100 nM

Query string: Further, for CNC(=O)c1cccc(Cn2ccc3cc(-c4ccoc4C)ccc3c2=O)c1 [Compound 303] ?
Result string: > 501 nM

Query string: Further, for CNC(=O)c1cc(Cn2ccc3cc(-c4conc4C)ccc3c2=O)ccn1 [Compound 313] ?
Result string: > 501 nM

Query string: Further, for O=C(NCC1CCOCC1)c1cccc(Cn2cnc3cc(-c4cn[nH]c4C(F)(F)F)ccc3c2=O)c1 [Compound 379] ?
Result string: 11 to 100 nM

Query string: Further, for CN1CCC(CNC(=O)c2cc(F)cc(Cn3ccc4cc(-c5c[nH]nc5C(F)F)ncc4c3=O)c2)CC1 [Compound 274] ?
Result string: < 10 nM
